Tested on: production of Leukotriene B4 (LTB4)
Assay: Dog ex vivo Leukotriene B4 inhibition (oral dosing, blood challenged with calcium ionophore)
Type: in vivo, beagle dogs
Conditions: Canis lupus familiaris, po, 2 h, 2 hour post dose, each entry one dog, negative = stimulation of LTB4 production, read-out: % Inhibition 2 hour
The entries below are paired with their reported inhibition at 5 mg/kg.
Assay endpoint: inhibition at 5 mg/kg (%)

Cc1cccc(NC(=O)N(C)O)c1 | 100
Cc1ccccc1NC(=O)N(O)C(C)C | 51
COc1ccc(NC(=O)N(O)C(C)C)cc1 | 99
O=C(Nc1ccccc1)N(O)C1CCCC1 [Compound 46, 1-cyclopentyl-1-hydroxy-3-phenylurea] | 64
CC(C)N(O)C(=O)Nc1ccccc1F | 100
CC(C)N(O)C(=O)Nc1ccc(Br)cc1 | 84
CN(O)C(=O)Nc1ccc(F)cc1 | 100
CC(C)N(O)C(=O)Nc1ccc(F)cc1 | 100
CSc1cccc(NC(=O)N(C)O)c1 | 100
CC(C)N(O)C(=O)Nc1ccccc1 [Compound 17, 1-hydroxy-1-(1-methylethyl)-3-phenylurea] | 98
CSc1ccc(NC(=O)N(C)O)cc1 | 100
CSc1ccc(NC(=O)N(O)C(C)C)cc1 | 99
CN(O)C(=O)Nc1ccccc1 [Compound 10, 1-hydroxy-1-methyl-3-phenylurea] | 100
CSc1cccc(NC(=O)N(O)C(C)C)c1 | 97
CCC(CC)N(O)C(=O)Nc1ccccc1 [Compound 42, 1-(1-Ethylpropyl)-1-hydroxy-3-phenylurea] | 99
CC(C)N(O)C(=O)Nc1ccccc1Cl | 73
CC(C)CN(O)C(=O)Nc1ccccc1 | 97
CC(C)N(O)C(=O)Nc1cccc([S+](C)[O-])c1 (stereo not drawn) | 100
CN(O)C(=O)Nc1cccc(F)c1 | 92
Cc1cccc(NC(=O)N(O)C(C)C)c1 | 95
CN(O)C(=O)Nc1cccc(S(C)(=O)=O)c1 | 99

###

Target: 5-lipoxygenase (Homo sapiens, UniProt P09917)
Construct: Whole human blood is collected by venipuncture into EDTA; endogenous in cells; host or cells: leukocytes isolated from whole human blood (dextran sedimentation, hypotonic lysis)
Sequence (P09917 1-674): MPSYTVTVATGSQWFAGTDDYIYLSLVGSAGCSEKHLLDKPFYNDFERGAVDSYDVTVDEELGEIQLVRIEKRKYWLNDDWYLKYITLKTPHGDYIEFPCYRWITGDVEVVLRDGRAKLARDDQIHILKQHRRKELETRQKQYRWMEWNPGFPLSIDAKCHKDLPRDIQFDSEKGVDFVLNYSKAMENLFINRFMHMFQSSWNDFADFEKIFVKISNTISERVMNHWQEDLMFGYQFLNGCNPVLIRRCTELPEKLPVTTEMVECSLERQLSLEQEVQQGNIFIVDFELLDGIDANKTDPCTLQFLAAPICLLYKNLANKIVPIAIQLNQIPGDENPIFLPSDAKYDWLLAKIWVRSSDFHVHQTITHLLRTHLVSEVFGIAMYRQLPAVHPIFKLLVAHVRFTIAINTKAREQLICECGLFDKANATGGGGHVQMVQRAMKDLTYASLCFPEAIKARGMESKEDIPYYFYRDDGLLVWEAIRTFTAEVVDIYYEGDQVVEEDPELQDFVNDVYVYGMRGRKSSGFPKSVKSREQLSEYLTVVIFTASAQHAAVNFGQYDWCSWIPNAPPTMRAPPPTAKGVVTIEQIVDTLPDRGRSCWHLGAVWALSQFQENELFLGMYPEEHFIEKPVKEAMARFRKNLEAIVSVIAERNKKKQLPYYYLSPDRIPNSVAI
Experiment: 5-Lipoxygenase inhibition in human leukocytes (A23187-stimulated, LTC4 radioimmunoassay)
Assay type: cell-based
Details: human leukocytes, A23187 Calcium Ionophore, LTC4 formed; read-out: IC50
# IC50 per entry
Assay endpoint: IC50 (nM)

CN(O)C(=O)Nc1cccc(OS(=O)(=O)C(F)(F)F)c1 | 40
COc1cccc(NC(=O)N(C)O)c1 | 420
CC(C)N(O)C(=O)Nc1ccccc1 [Compound 17, 1-hydroxy-1-(1-methylethyl)-3-phenylurea] | 43
CSc1cccc(NC(=O)N(C)O)c1 | 82
CC(C)CN(O)C(=O)Nc1ccccc1 | 94
CN(O)C(=O)Nc1cccc(Br)c1 [Compound 6, 3-(3-bromophenyl)-1-hydroxy-1-methylurea] | 70
CC(C)CCN(O)C(=O)Nc1ccccc1 [Compound 44, 1-hydroxy-1-(3-methylbutyl)-3-phenylurea] | 10
CC(C)N(O)C(=O)Nc1ccccc1F | 700
Cc1cccc(NC(=O)N(C)O)c1 | 280

###

Test system: production of Leukotriene B4 (LTB4)
Assay: Dog ex vivo Leukotriene B4 inhibition (oral dosing, blood challenged with calcium ionophore)
Type: in vivo, beagle dogs
Conditions: Canis lupus familiaris, po, 6 h, 6 hour post dose, each entry one dog, negative = stimulation of LTB4 production, read-out: % Inhibition 6 hour
Decide by inhibition at 5 mg/kg: equal to or exceeding 60% means Condition met, less means Condition not met.

CN(O)C(=O)Nc1cccc([N+](=O)[O-])c1 [Compound 9, 1-hydroxy-1-methyl-3-(3-nitrophenyl)urea] | Condition not met
CC(C)CN(O)C(=O)Nc1ccccc1 [Compound 54] | Condition not met
CC(C)N(O)C(=O)Nc1ccccc1F [Compound 20] | Condition not met
Cc1ccccc1NC(=O)N(O)C(C)C [Compound 25] | Condition not met
CSc1ccc(NC(=O)N(C)O)cc1 [Compound 1] | Condition met
CN(O)C(=O)Nc1ccccc1 [Compound 10, 1-hydroxy-1-methyl-3-phenylurea] | Condition not met

###

Tested on: production of Leukotriene B4 (LTB4)
Assay: Dog ex vivo Leukotriene B4 inhibition (oral dosing, blood challenged with calcium ionophore)
Type: in vivo, beagle dogs
Details: 5 mg/Kg, 4 hour post dose, each entry one dog, negative = stimulation of LTB4 production
Everything with % Inhibition 4 hour lower than 60% is n; everything else, including exactly 60%, is y.

Cc1cccc(NC(=O)N(C)O)c1 | n
CC(C)N(O)C(=O)Nc1ccccc1F | y
CSc1cccc(NC(=O)N(C)O)c1 | y
CN(O)C(=O)Nc1ccccc1 [Compound 10, 1-hydroxy-1-methyl-3-phenylurea] | n
CN(O)C(=O)Nc1cccc([N+](=O)[O-])c1 [Compound 9, 1-hydroxy-1-methyl-3-(3-nitrophenyl)urea] | n
CC(C)N(O)C(=O)Nc1ccccc1 [Compound 17, 1-hydroxy-1-(1-methylethyl)-3-phenylurea] | y
CC(C)N(O)C(=O)Nc1ccccc1Cl | n
CC(C)N(O)C(=O)Nc1ccc(F)cc1 | n

###

IC50 values, listed per item
Target: 5-lipoxygenase (Homo sapiens)
Construct: Whole human blood is collected by venipuncture into EDTA; endogenous in cells; host or cells: leukocytes isolated from whole human blood (dextran sedimentation, hypotonic lysis)
Assay: 5-Lipoxygenase inhibition in human leukocytes (A23187-stimulated, LTC4 radioimmunoassay)
Type: cell-based
Settings: human leukocytes, A23187 Calcium Ionophore, LTC4 formed; read-out: IC50
Description: The test method described below measures the ability of compounds to inhibit 5-lipoxygenase activity in human leukocytes. Whole human blood is collected by venipuncture into EDTA (1.4 mL of 0.25M per 60 mL of whole blood). The red blood cells are sedimented with a 6% dextran/0.9% sodium chloride solution at a ratio of 25 mL whole blood to 15 mL dextran solution. […]
Assay endpoint: IC50 (nM)

CSc1ccc(NC(=O)N(O)C2CCCCC2)cc1 | 6
CC(C)N(O)C(=O)Nc1ccc(F)cc1 | 210
CN(O)C(=O)Nc1ccccc1 [Compound 10, 1-hydroxy-1-methyl-3-phenylurea] | 20
CSc1cccc(NC(=O)N(O)CC(C)C)c1 | 2
CN(O)C(=O)Nc1cccc(F)c1 | 680
Cc1cccc(NC(=O)N(O)C(C)C)c1 | 230
CN(O)C(=O)Nc1cccc(SC(F)(F)F)c1 | 27
CSc1cccc(NC(=O)N(O)C(C)C)c1 | 8
CN(O)C(=O)Nc1ccc(F)cc1 | 49
Cc1ccccc1NC(=O)N(O)C(C)C | 130
CN(O)C(=O)Nc1cccc([N+](=O)[O-])c1 [Compound 9, 1-hydroxy-1-methyl-3-(3-nitrophenyl)urea] | 80
CN(O)C(=O)Nc1cccc(S(C)(=O)=O)c1 | 1100
CCCN(O)C(=O)Nc1ccccc1 [Compound 55, 1-hydroxy-3-phenyl-1-propylurea] | 52
CCN(O)C(=O)Nc1ccccc1 [Compound 43, 1-ethyl-1-hydroxy-3-phenylurea] | 30
COc1ccc(NC(=O)N(O)C(C)C)cc1 | 150
CC(C)N(O)C(=O)Nc1ccc(Br)cc1 | 100
CSc1cccc(NC(=O)NO)c1 [Compound 34, 1-hydroxy-3-[3-(methylthio)phenyl]urea] | 460
CSc1ccc(NC(=O)N(C)O)cc1 | 83
COc1cccc(NC(=O)N(O)C(C)C)c1 | 740
COc1cccc(NC(=O)NO)c1 [Compound 33, 1-hydroxy-3-(3-methoxyphenyl)urea] | 9100

###

System: production of Leukotriene B4 (LTB4)
Experiment: Dog ex vivo Leukotriene B4 inhibition (oral dosing, blood challenged with calcium ionophore)
Assay type: in vivo, beagle dogs
Details: 5 mg/Kg, 6 hour post dose, each entry one dog, negative = stimulation of LTB4 production
Assay endpoint: % Inhibition 6 hour (%)

Cc1ccccc1NC(=O)N(O)C(C)C [Compound 25] | 9
CC(C)N(O)C(=O)Nc1ccccc1F [Compound 20] | 13
CN(O)C(=O)Nc1cccc([N+](=O)[O-])c1 [Compound 9, 1-hydroxy-1-methyl-3-(3-nitrophenyl)urea] | 54
CN(O)C(=O)Nc1ccccc1 [Compound 10, 1-hydroxy-1-methyl-3-phenylurea] | 42
CSc1ccc(NC(=O)N(C)O)cc1 [Compound 1] | 95
